Values compiled from PubChem BioAssay AID248.

What T/C was measured for each of the following?
Tested on: L1210 leukemia ip in BDF1 mice, survival T/C
Assay: NCI In Vivo Anticancer Drug Screen. Data for tumor model L1210 Leukemia (intraperitoneal) in B6D2F1 (BDF1) mice
Details: endpoint: mean survival time; dose: 50.0 mg/kg/injection; schedule: Q01DX009 (ip); vehicle: saline with Tween-80; higher = longer survival
Inconclusive results and toxic doses are left out.

Q: What value of T/C on L1210 leukemia ip in BDF1 mice, survival T/C does [O-][n+]1c(CCl)nc2cccc3c2c1-c1ccccc1-3 have?
Result: 110 % of control

Q: What value of T/C on L1210 leukemia ip in BDF1 mice, survival T/C does COC(=O)c1ccccc1NC(=O)C(Br)C(Br)C(=O)O (stereo not given) have?
Result: 101 % of control

Q: What value of T/C on L1210 leukemia ip in BDF1 mice, survival T/C does O=C(O)c1c(I)c(I)c(I)c(I)c1C(=O)c1ccccc1 have?
Result: 103 % of control

Q: What value of T/C on L1210 leukemia ip in BDF1 mice, survival T/C does COc1ccc(O)c(N=Nc2nccs2)c1 have?
Result: 109 % of control

Q: What value of T/C on L1210 leukemia ip in BDF1 mice, survival T/C does O=C(CCCBr)Nc1ccc2ccccc2c1 have?
Result: 98 % of control

###

Test system: L1210 leukemia ip in BDF1 mice, survival T/C
Test: NCI In Vivo Anticancer Drug Screen. Data for tumor model L1210 Leukemia (intraperitoneal) in B6D2F1 (BDF1) mice
Settings: endpoint: mean survival time; dose: 400.0 mg/kg/injection; schedule: Q01DX001 (ip); vehicle: saline; higher = longer survival
Inconclusive results and toxic doses are left out. Peptide text beside a SMILES is read from it. * marks the point of attachment. Trt = c1ccc(C(c2ccccc2)(c2ccccc2)*)cc1; OtBu = CC(C)(C)O*
What T/C was measured for each of the following?

Q: Given Cn1cc(C(C)(C(=O)O)c2cn(C)c3ccccc23)c2ccccc21 , state its recorded T/C.
Result: 102 % of control

Q: Given CCC(C(=O)O)=C1CCCCC1 , state its recorded T/C.
Result: 103 % of control

Q: Given Nc1nc2c(c(-c3ccccc3)n1)CN(CCC(=O)O)C2=O , state its recorded T/C.
Result: 100 % of control

Q: Given CC(C)(C)OC(=O)CNC(=O)C(Cc1ccccc1)NC(=O)C(N)CSC(c1ccccc1)(c1ccccc1)c1ccccc1 (stereo not drawn) (H-Cys(Trt)-Phe-Gly-OtBu; configuration not given here) , state its recorded T/C.
Result: 115 % of control

Q: Given CN(C)C1C(=O)C(C(=O)NCNC(CCS(C)=O)C(=O)O)=C(O)C2(O)C(=O)C3=C(O)c4c(O)cccc4C(C)(O)C3CC12 (stereo not given) , state its recorded T/C.
Result: 91 % of control

###

Test system: L1210 leukemia ip in BDF1 mice, survival T/C
Assay: NCI In Vivo Anticancer Drug Screen. Data for tumor model L1210 Leukemia (intraperitoneal) in B6D2F1 (BDF1) mice
Conditions: endpoint: mean survival time; dose: 400.0 mg/kg/injection; schedule: Q04DX003 (ip); vehicle: Klucel (hydroxypropylcellulose) (HPC); higher = longer survival
Inconclusive results and toxic doses are left out.
What T/C was measured for each of the following?

Q: Given Cc1cccc(NC(=O)NCCCl)c1Cl , state its recorded T/C.
Result: 94 % of control

Q: Given C[Si](C)(C)N1N=NC2C(=O)N(c3ccccc3)C(=O)C21 (configuration not stated) , state its recorded T/C.
Result: 103 % of control

Q: Given Nc1cc2c3ccccc3c(F)cc2c2ccccc12 , state its recorded T/C.
Result: 98 % of control

Q: Given Cc1ccc([N+](=O)[O-])cc1NC(=O)N1CCCCC1C (configuration not stated) , state its recorded T/C.
Result: 104 % of control

Q: Given CN(C(=S)SSC(=S)N(C)c1ccccc1)c1ccccc1 , state its recorded T/C.
Result: 93 % of control

Q: Given COc1cc(C)c2cccc(OC)c2n1 , state its recorded T/C.
Result: 94 % of control

Q: Given Oc1c(Cl)cc(N=Cc2ccc(N(CCCCl)CCCCl)cc2)cc1Cl , state its recorded T/C.
Result: 102 % of control
